target_or_system: human MC4R receptor (human, UniProt P32245 1-332)
Sequence (P32245 whole entry): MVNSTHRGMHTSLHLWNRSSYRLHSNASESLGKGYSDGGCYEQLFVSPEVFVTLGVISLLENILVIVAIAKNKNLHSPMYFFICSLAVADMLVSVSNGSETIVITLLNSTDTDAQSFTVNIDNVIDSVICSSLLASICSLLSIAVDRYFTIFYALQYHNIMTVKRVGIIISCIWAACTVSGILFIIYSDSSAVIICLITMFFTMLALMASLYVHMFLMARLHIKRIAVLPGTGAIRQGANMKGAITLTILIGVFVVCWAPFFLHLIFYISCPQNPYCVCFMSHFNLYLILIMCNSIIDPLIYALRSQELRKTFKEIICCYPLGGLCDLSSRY
protocol_details: cell-based or functional assay
Positions of bridges follow the written chain, without caps; N, C: chain ends. Non-standard residues stand in square brackets, D forms with d. Cit = NC(=O)NCCC[C@H](N)C(=O)O; Nle = CCCC[C@H](N)C(=O)O; Aib = CC(C)(N)C(=O)O

- binder: "Ac-C[Aib][Cit][dF]RFC-NH2 (disulfide 1-7; SMILES CC(=O)N[C@H]1CSSC[C@@H](C(N)=O)NC(=O)[C@H](Cc2ccccc2)NC(=O)[C@H](CCCNC(=N)N)NC(=O)[C@@H](Cc2ccccc2)NC(=O)[C@H](CCCNC(N)=O)NC(=O)C(C)(C)NC1=O) [CTX-1636]"
  MC4R selectivity vs MC3R: 9.44
- binder: "Ac-R[Nle]CR[dF]R[dW]C-NH2 (disulfide 3-8) [CTX-1616]"
  MC4R selectivity vs MC3R: 3.78
